B1: TTC32 (parent)
chain: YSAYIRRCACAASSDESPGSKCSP

Variants of: B1
assay.method.text: protein stability index of a GFP-peptide fusion (GPS, HEK-293T) (PSI 1-6); higher = more stable;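 also: lentivirally expressed fusions sorted by FACS into six bins by GFP to DsRed ratio, PSI derived from sequencing read proportions per bin multiplied by bin number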
condition.notes: c terminus: a fixed tail appended
Lab note: anything with protein stability index at or over 2 counts as class 1; the rest go in class 0.

variant.identifier | classification
G19W | class 1
D15T | class 1
A12R | class 0
A12S | class 1
E16H | class 1
S13F | class 1
Y1E | class 1
Y1K | class 1
E16F | class 1
R6M | class 0
D15G | class 0
A12V | class 1
S2F | class 1
S2K | class 0
P24R | class 1
R7N | class 1
R6N | class 1
S20M | class 1
